B1: SH3 and PX domain-containing protein 2B, residues 155 to 209; numbered along this chain, A1X283 (parent)
chain: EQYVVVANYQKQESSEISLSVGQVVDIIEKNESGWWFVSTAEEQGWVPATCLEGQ

Variants of: B1
Experiment: abundance fitness (aPCA) (normalised: wild type 0, dead -1); higher = more abundant; growth selection in yeast, the domain comes from the species named
Settings: Homo sapiens
For each record, write down the corresponding abundance fitness.
Quick one: just the number, no unit, thanks!

Can you share its abundance fitness? I mean this variant: EQYVVVANYQKQESSEISLSVGQVVDIIEKNESGWWFVITAEEQGWVPATCLEGQ
-0.297

Can you share its abundance fitness? I mean this variant: EQYVVVANYCKQESSEISLSVGQVVDIIEKNESGWWFVSTAEEQGWVPATCLEGQ
-0.135

Can you share its abundance fitness? I mean this variant: EQYVVVANYQKQESSEISLSVGQVHDIIEKNESGWWFVSTAEEQGWVPATCLEGQ
-0.656

Can you share its abundance fitness? I mean this variant: EQYVVVANYQKQESSEISLSVGQVVDIIEKNESGWWFVSTSEEQGWVPATCLEGQ
0.034

Can you share its abundance fitness? I mean this variant: EQYVVVANYQKQESSEISLSVGQVVDIIIKNESGWWFVSTAEEQGWVPATCLEGQ
0.133

Can you share its abundance fitness? I mean this variant: EQYVVVANYQKQESSEISLSVGQVVDIIEKNESGWWFVSTAEHQGWVPATCLEGQ
-0.021

Can you share its abundance fitness? I mean this variant: EQIVVVANYQKQESSEISLSVGQVVDIIEKNESGWWFVSTAEEQGWVPATCLEGQ
-0.175

Can you share its abundance fitness? I mean this variant: EQYVVGANYQKQESSEISLSVGQVVDIIEKNESGWWFVSTAEEQGWVPATCLEGQ
-0.151

Can you share its abundance fitness? I mean this variant: EQYVVVAYYQKQESSEISLSVGQVVDIIEKNESGWWFVSTAEEQGWVPATCLEGQ
-0.448

Can you share its abundance fitness? I mean this variant: EQYVVPANYQKQESSEISLSVGQVVDIIEKNESGWWFVSTAEEQGWVPATCLEGQ
-0.529

Can you share its abundance fitness? I mean this variant: EQYVVVANYQKQESSEISLSWGQVVDIIEKNESGWWFVSTAEEQGWVPATCLEGQ
-0.566

Can you share its abundance fitness? I mean this variant: EQYLVVANYQKQESSEISLSVGQVVDIIEKNESGWWFVSTAEEQGWVPATCLEGQ
0.075

Can you share its abundance fitness? I mean this variant: EQYVVVANYQKQESSEISLSVGQVVDIIEKNESGPWFVSTAEEQGWVPATCLEGQ
-0.621

Can you share its abundance fitness? I mean this variant: EQYVVVANYQKQESSEISLSVGQVVDIIEKNESGWWFVSTAEEQGWVPAQCLEGQ
-0.161

Can you share its abundance fitness? I mean this variant: EQYVVVANYQKQESSEISLSVGQVVDIIEKNESGWWFVSTAEEGGWVPATCLEGQ
-0.151

Can you share its abundance fitness? I mean this variant: EQYVVVANYFKQESSEISLSVGQVVDIIEKNESGWWFVSTAEEQGWVPATCLEGQ
-0.257

Can you share its abundance fitness? I mean this variant: EQYVVVANYQKEESSEISLSVGQVVDIIEKNESGWWFVSTAEEQGWVPATCLEGQ
-0.195

Can you share its abundance fitness? I mean this variant: EQYVVVANYQKQESSVISLSVGQVVDIIEKNESGWWFVSTAEEQGWVPATCLEGQ
-0.92

Can you share its abundance fitness? I mean this variant: EQYVVVANYQKQESSEISLSVGQVVDIIEKNESGAWFVSTAEEQGWVPATCLEGQ
-0.172

Can you share its abundance fitness? I mean this variant: EQYVVVANYQKQESSEISLSVGQVVDIIEKNESGWWFVSMAEEQGWVPATCLEGQ
-0.065

Can you share its abundance fitness? I mean this variant: EQYVVVANYQKQESSEISLSVGQVVDIIEKPESGWWFVSTAEEQGWVPATCLEGQ
-0.194

Can you share its abundance fitness? I mean this variant: EQYVVVANYQKQESSEISLSVGWVVDIIEKNESGWWFVSTAEEQGWVPATCLEGQ
-0.292

Can you share its abundance fitness? I mean this variant: EQYVVVANYQKQESSEISLSVGQVVDIGEKNESGWWFVSTAEEQGWVPATCLEGQ
-0.211

Can you share its abundance fitness? I mean this variant: EQYVVVANYQKQESSEISLSVGQVVDIIEKNESQWWFVSTAEEQGWVPATCLEGQ
-0.458

Can you share its abundance fitness? I mean this variant: EQYVVVANYQKQESSEISLSVGQVVDIIETNESGWWFVSTAEEQGWVPATCLEGQ
-0.008

Can you share its abundance fitness? I mean this variant: EQYVVVANYQKQESSEISLSVGQVVDIISKNESGWWFVSTAEEQGWVPATCLEGQ
-0.114

Can you share its abundance fitness? I mean this variant: EQYVVVANYQKQESSEISLSVGQVVDIIEKNESGWWFVSTAEEQGWVPATCPEGQ
-0.826

Can you share its abundance fitness? I mean this variant: EQYVVVANYQKQESSEISLSVGQVVDIIEKNESSWWFVSTAEEQGWVPATCLEGQ
-0.208

Can you share its abundance fitness? I mean this variant: EQYVVVANYQKQESSEISLSVGQVVDIIEKNESGWWQVSTAEEQGWVPATCLEGQ
0.036
